System: MCF-7 cells
method notes: MTT cytotoxicity assay on MCF-7 cells
Format: cell-based
measurement setup: Homo sapiens, MCF7; MTT, 24 h treatment; mean of three experiments ± SEM; read-out: IC50 (µM) MCF-7
readout type: IC50 (µM)
Respond with the bare value in µM.

compound: O=C1Nc2ccc([N+](=O)[O-])cc2C1=Nc1ccc2nc[nH]c(=O)c2c1
result units: µM
IC50: 72.4

Next compound, please.
[Q] Answer with the recorded IC50 of O=C1Nc2ccccc2/C1=C1/Nc2ccccc2C1=O [Ind, Indirubin, reference compound] only.
[A] 6.12

* * *

Readings of viability at 80 µM for the listed molecules
Test system: HepG-2 cells
method notes: MTT cytotoxicity assay on HepG-2 cells
Assay type: cell-based, human
measurement setup: Homo sapiens, HepG2; HepG-2, 80 µM, Table S1
Respond with the bare value in %.

compound structure string: O=C1Nc2ccc(Br)cc2C1=Nc1ccc(-c2nc3ccccc3c(=O)[nH]2)cc1
result units: %
viability at 80 µM: 9.33

compound structure string: O=C1Nc2ccccc2C1=Nc1ccc(-c2nc3ccccc3c(=O)[nH]2)cc1
result units: %
viability at 80 µM: 4.54

compound structure string: O=C1Nc2ccc([N+](=O)[O-])cc2C1=Nc1ccc(-c2nc3ccccc3c(=O)[nH]2)cc1
result units: %
viability at 80 µM: 8.22

[Q] Specify the recorded viability at 80 µM for O=C1Nc2ccccc2C1=Nc1ccc2nc[nH]c(=O)c2c1 , system: HepG-2 cells.
[A] 9.4

[Q] Specify the recorded viability at 80 µM for O=C1Nc2ccc(Br)cc2C1=Nc1ccc2nc[nH]c(=O)c2c1 , system: HepG-2 cells.
[A] 19.4

* * *

tested system: CDK-2 (Homo sapiens, UniProt P24941)
Construct: purchased BPS Bioscience 41101
method notes: Kinase-Glo Plus luminescence kinase inhibition assay, CDK-2
Type: biochemical
measurement setup: 10 µM ATP, 30 °C, 40 min; mean ± SEM
readout type: IC50 (nM)
Respond with the bare value in nM.

Study these solved cases before continuing.
compound: O=C1Nc2ccccc2/C1=C1/Nc2ccccc2C1=O [Ind, Indirubin, reference compound]
IC50 [nM]: 45.6

compound: O=C1Nc2ccc(Cl)cc2C1=Nc1ccc2nc[nH]c(=O)c2c1
IC50 [nM]: 9.39

Next compound, please.
[Q] Answer with the recorded IC50 of O=C1Nc2ccc(Cl)cc2C1=Nc1ccc(-c2nc3ccccc3c(=O)[nH]2)cc1 only.
[A] 225

* * *

Tested on: MCF-7 cells
method notes: MTT cytotoxicity assay on MCF-7 cells
Format: cell-based
measurement setup: Homo sapiens, MCF7; MCF-7, 80 µM, Table S2
readout type: viability at 80 µM (%)
Respond with the bare value in %.

[Q] Answer with the recorded viability at 80 µM of O=C1Nc2ccccc2C1=Nc1ccc2nc[nH]c(=O)c2c1 only.
[A] 45.2

[Q] Answer with the recorded viability at 80 µM of O=C1Nc2ccccc2C1=Nc1ccc(-c2nc3ccccc3c(=O)[nH]2)cc1 only.
[A] 74.3

[Q] Answer with the recorded viability at 80 µM of O=C1Nc2ccc(Cl)cc2C1=Nc1ccc2nc[nH]c(=O)c2c1 only.
[A] 14.8

[Q] Answer with the recorded viability at 80 µM of O=C1Nc2ccc(Br)cc2C1=Nc1ccc2nc[nH]c(=O)c2c1 only.
[A] 41.2

[Q] Answer with the recorded viability at 80 µM of Cc1ccc2c(c1)C(=Nc1ccc(-c3nc4ccccc4c(=O)[nH]3)cc1)C(=O)N2 only.
[A] 12

* * *

tested system: CDK-4 (Homo sapiens)
Construct: purchased BPS Bioscience 79674
Sequence (P11802 whole entry): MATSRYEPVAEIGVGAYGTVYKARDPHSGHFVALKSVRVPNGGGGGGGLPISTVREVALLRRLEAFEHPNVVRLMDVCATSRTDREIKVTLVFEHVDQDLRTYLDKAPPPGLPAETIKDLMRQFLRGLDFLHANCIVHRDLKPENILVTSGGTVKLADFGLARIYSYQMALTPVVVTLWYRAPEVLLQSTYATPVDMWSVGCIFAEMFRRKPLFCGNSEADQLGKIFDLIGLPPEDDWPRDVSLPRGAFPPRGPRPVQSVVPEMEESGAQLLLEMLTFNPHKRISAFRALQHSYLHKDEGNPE
Sequence (P30281 whole entry partner): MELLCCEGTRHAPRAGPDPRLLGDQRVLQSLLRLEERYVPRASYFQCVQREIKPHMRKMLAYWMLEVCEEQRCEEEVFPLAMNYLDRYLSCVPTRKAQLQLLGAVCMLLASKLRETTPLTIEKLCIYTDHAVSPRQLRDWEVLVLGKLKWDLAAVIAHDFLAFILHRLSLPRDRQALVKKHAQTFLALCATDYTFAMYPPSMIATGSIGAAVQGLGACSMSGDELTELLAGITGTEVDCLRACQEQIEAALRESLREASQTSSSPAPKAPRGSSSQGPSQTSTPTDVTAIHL
method notes: Kinase-Glo Plus luminescence kinase inhibition assay, CDK-4
Type: biochemical
measurement setup: 10 µM ATP, 30 °C, 40 min; mean ± SEM
Readings of IC50 for the listed compounds
Respond with the bare value in nM.

Study these solved cases before continuing.
compound: O=C1Nc2ccc(Cl)cc2C1=Nc1ccc(-c2nc3ccccc3c(=O)[nH]2)cc1
tested system: CDK-4 (Homo sapiens)
result units: nM
IC50: 244
--
compound: O=C1Nc2ccccc2/C1=C1/Nc2ccccc2C1=O [Ind, Indirubin, reference compound]
tested system: CDK-4 (Homo sapiens)
result units: nM
IC50: 23.6

Next compound, please.
[Q] Answer with the recorded IC50 of O=C1Nc2ccc(Cl)cc2C1=Nc1ccc2nc[nH]c(=O)c2c1 only.
[A] 36.4

* * *

Tested on: HepG-2 cells
method notes: MTT cytotoxicity assay on HepG-2 cells
Assay type: cell-based, human
measurement setup: Homo sapiens, HepG2; HepG-2, 40 µM, Table S1
readout type: viability at 40 µM

Study these solved cases before continuing.
compound structure string: O=C1Nc2ccc(Br)cc2C1=Nc1ccc(-c2nc3ccccc3c(=O)[nH]2)cc1
value measured: 23%
//
compound structure string: O=C1Nc2ccc(F)cc2/C1=N/c1ccc2nc[nH]c(=O)c2c1
value measured: 17.5%
//
compound structure string: O=C1Nc2ccc([N+](=O)[O-])cc2C1=Nc1ccc(-c2nc3ccccc3c(=O)[nH]2)cc1
value measured: 26.1%
//
compound structure string: Cc1ccc2c(c1)C(=Nc1ccc3nc[nH]c(=O)c3c1)C(=O)N2
value measured: 49.7%
//
compound structure string: O=C1Nc2ccc(Br)cc2C1=Nc1ccc2nc[nH]c(=O)c2c1
value measured: 35.8%

Next compound, please.
[Q] Answer with the recorded viability at 40 µM of O=C1Nc2ccc(F)cc2/C1=N/c1ccc(-c2nc3ccccc3c(=O)[nH]2)cc1 only.
[A] 26.6%

* * *

System: HepG-2 cells
method notes: MTT cytotoxicity assay on HepG-2 cells
Format: cell-based, human
measurement setup: Homo sapiens, HepG2; HepG-2, 40 µM, Table S1
Method: Cytotoxic activity of the synthesized compounds was evaluated against HepG-2 and MCF-7 cancer cell lines using the MTT assay. The tested cell lines were obtained from the American Type Culture Collection (ATCC, […], USA) through the Tissue Culture Unit, The Egyptian Organization for Biological Products and Vaccines (Vacsera, Giza, Egypt). […] After incubating for 24 h, the numbers of viable cells were determined by the MTT test. […]
readout type: viability at 40 µM

Study these solved cases before continuing.
compound: COc1ccc2c(c1)C(=Nc1ccc(-c3nc4ccccc4c(=O)[nH]3)cc1)C(=O)N2 [Compound 24]
viability at 40 µM: 49.5%
--
compound: COc1ccc2c(c1)C(=Nc1ccc3nc[nH]c(=O)c3c1)C(=O)N2 [Compound 13]
viability at 40 µM: 26.6%
--
compound: O=C1Nc2ccccc2C1=Nc1ccc2nc[nH]c(=O)c2c1 [Compound 7]
viability at 40 µM: 26.5%

[Q] Answer with the recorded viability at 40 µM of O=C1Nc2ccc(Cl)cc2C1=Nc1ccc(-c2nc3ccccc3c(=O)[nH]2)cc1 [Compound 20] only.
[A] 18.4%

[Q] Answer with the recorded viability at 40 µM of O=C1Nc2ccc([N+](=O)[O-])cc2C1=Nc1ccc2nc[nH]c(=O)c2c1 [Compound 11] only.
[A] 54.6%

[Q] Answer with the recorded viability at 40 µM of Cc1ccc2c(c1)C(=Nc1ccc(-c3nc4ccccc4c(=O)[nH]3)cc1)C(=O)N2 [Compound 23] only.
[A] 28.7%

[Q] Answer with the recorded viability at 40 µM of O=C1Nc2ccc(Cl)cc2C1=Nc1ccc2nc[nH]c(=O)c2c1 [Compound 9] only.
[A] 19.6%

[Q] Answer with the recorded viability at 40 µM of O=C1Nc2ccccc2C1=Nc1ccc(-c2nc3ccccc3c(=O)[nH]2)cc1 [Compound 18] only.
[A] 24.9%

* * *

Readings of viability at 80 µM for the listed molecules
Test system: MCF-7 cells
method notes: MTT cytotoxicity assay on MCF-7 cells
Format: cell-based
measurement setup: Homo sapiens, MCF7; MCF-7, 80 µM, Table S2
Respond with the bare value in %.

[Q] Answer with the recorded viability at 80 µM of O=C1Nc2ccc([N+](=O)[O-])cc2C1=Nc1ccc2nc[nH]c(=O)c2c1 only.
[A] 25.6

[Q] Answer with the recorded viability at 80 µM of O=C1Nc2ccc(Br)cc2C1=Nc1ccc(-c2nc3ccccc3c(=O)[nH]2)cc1 only.
[A] 16

[Q] Answer with the recorded viability at 80 µM of Cc1ccc2c(c1)C(=Nc1ccc3nc[nH]c(=O)c3c1)C(=O)N2 only.
[A] 21.5

[Q] Answer with the recorded viability at 80 µM of O=C1Nc2ccc(Cl)cc2C1=Nc1ccc(-c2nc3ccccc3c(=O)[nH]2)cc1 only.
[A] 7.77

[Q] Answer with the recorded viability at 80 µM of O=C1Nc2ccc([N+](=O)[O-])cc2C1=Nc1ccc(-c2nc3ccccc3c(=O)[nH]2)cc1 only.
[A] 23.5

[Q] Answer with the recorded viability at 80 µM of O=C1Nc2ccc(F)cc2/C1=N/c1ccc2nc[nH]c(=O)c2c1 only.
[A] 29.7

* * *

System: HepG-2 cells
method notes: MTT cytotoxicity assay on HepG-2 cells
Type: cell-based, human
measurement setup: Homo sapiens, HepG2; HepG-2, 2.5 µM, Table S1
I'd appreciate it if you marked entries True when viability at 2.5 µM is lower than 80% and False when it is not.

compound structure string: O=C1Nc2ccc(F)cc2/C1=N/c1ccc2nc[nH]c(=O)c2c1
label class: True
--
compound structure string: O=C1Nc2ccc([N+](=O)[O-])cc2C1=Nc1ccc2nc[nH]c(=O)c2c1
label class: False
--
compound structure string: Cc1ccc2c(c1)C(=Nc1ccc(-c3nc4ccccc4c(=O)[nH]3)cc1)C(=O)N2
label class: True

[Q] Lab log: compare recorded viability at 2.5 µM with 80%; is it strictly lower for O=C1Nc2ccccc2C1=Nc1ccc(-c2nc3ccccc3c(=O)[nH]2)cc1 ?
[A] True

[Q] Lab log: compare recorded viability at 2.5 µM with 80%; is it strictly lower for O=C1Nc2ccc([N+](=O)[O-])cc2C1=Nc1ccc(-c2nc3ccccc3c(=O)[nH]2)cc1 ?
[A] True

Data origin, for the record: paper PMC11901902
